# Test summary: Drug concentration at steady state in human at 2 to 8 mg, po QD after 24 hrs
# Format: ADME, organism-based
# Run conditions: in vivo, read-out: Css
Readout type: concentration at 24 h (nM)
Numbers only here, please. The scale is nM.

Would you mind telling me what concentration at 24 h value was observed for CN(CCOc1ccc(CC2SC(=O)NC2=O)cc1)c1ccccn1 (stereo unspecified) [ROSIGLITAZONE] ?
334

* * *

# Test summary: AUC in human at 3 mg, po QD after 24 hrs
# Type: ADME, organism-based
# Parameters: time < 24 hr, dose 3 mg, route oral
# Run conditions: in vivo
Readout type: AUC at 24 h (µM·h)
Reply numerically in µM·h, unit not repeated.

AUC at 24 h for C[C@]12CCC(=O)C=C1[C@@H]1C[C@@H]1[C@H]1[C@@H]3[C@@H]4C[C@@H]4[C@@]4(CCC(=O)O4)[C@@]3(C)CC[C@@H]12 ?
2.18
